Values from the nanobody polyreactivity screen of Harvey et al. (2022)

assay: yeast display, Sf9 membrane polyspecificity reagent, FACS + sequencing; frameworks hold sequencing errors
REPORTED METRIC: polyreactivity (PSR sort gate)

The examples below pair each entry with its known result.
QVQLVESGGGLVQAGGSLRLSCAASGFIFSTNAKGWYSQAPGKERELVATIRSGVSTYYADSVKGRFTISRDNAKNTVYLQMNSLKPEDTAVYYCNVDDTSRTTSGGRFGQVESDYWGQGTQVTVSS low polyreactivity
QVQLVESGGGLVQAGGSLRLSCAASGFIFGGYAMGWYRQAPGKERELVAAISSGGGTTYADSVKGRFTISRDNAKYTVYLQMNSLKPEDTAVYYGAAVTRDYRNDRRRQRYYYWGQGTQVTVSS high polyreactivity
QVHLVESGGGLFQAGGSLRLSFAATGLTFSPYARGWYRHGPGKERELVASITNGGRTYYADSVKGRFTISRDNAKITVYLQMNSLKPEDTAVYYCAAYPRGARRLDYWGQGTQVTVSS high polyreactivity
QVQVVESGGGLVQAGGSLRLSCAASGRTFYGNAMGWYRQAPGKERELVASITSRGDNTYYADSVKGRFTISRDNAKNTVYFQMNSLKPEDTAVYYCAAGTVYYTYLWMGYWGQGTQVTVSS low polyreactivity
QVQLVESGGGLVQAGGSLRLSCAASGRTFYYYAMGWYRQAPGKERELVAAINSGGTTSYADSVKGRFTISRDNAKNTVYFQMNSLKPEDTAVYYCAASDYGFPEYLTAYFYWGQGTLVTVSS low polyreactivity

Fill in: polyreactivity (PSR sort gate) of `QVQLVESGGGLVQAGGSLRLSCAASGRIFWYYTMGWYRQAPGKERELVAAISRGGSTYYADSVKGRFTISRDNAKNTVYLQMNSLKPEDTAVYYCAAQESWKIYDYWGQGTQVTVSS` is ___
low polyreactivity

Repeat with `QVQLVESGGGLVQAGGSLRLSCAASGFICYFYAMGWYRQAPGKERELVAVITQSGGSTYYADSVKGRFTISRDNAKNTVYLQMNSLKPEDTAVYYCNADTVRYYPFFSVRYYYWGQGTQVTVSS`
low polyreactivity

###

assay: yeast display, Sf9 membrane polyspecificity reagent, FACS + sequencing; frameworks hold sequencing errors
REPORTED METRIC: polyreactivity (PSR sort gate)

QVQLVESGGGLVQAGGSLRLSCAASGLIFYQYAMGWYRQAPGKERELVAAINWSGGSTYYADSVKGRFTISRDNAKNTVYLQMNSLKPEDTAVYYCAADTAFRFALTRYRPMDYWGQGTQVTVSS high polyreactivity
QVPHVESGGGLVQAGGSLRLSSAASGFIHKSYTMGWYRQAPGKERELVAAISRSGASKYYAYSVKGRFTISRDNAKNTVYLQMNSLKPEDTAVYYCNRRRHNIGTGEYNYWGQGTQVTVSS high polyreactivity

###

assay: yeast display, Sf9 membrane polyspecificity reagent, FACS + sequencing; frameworks hold sequencing errors
REPORTED METRIC: polyreactivity (PSR sort gate)

The examples below pair each entry with its known result.
QVQLVESGGGLVQAGGCLRLSGAASVYTYRKYAMGWSRQAPGNERELVAAISASGGSTYYADSVKGRFTISRDKAKNTVYLPMNSLKPEDTAVYYCAKVPVTVYSRPFDYWGQGTQVTVSS high polyreactivity
QVQLVESGGGLVQAGGSLRLSCAASGSIFDTYAMGWYRQAPGKERELVAAITWSGSSTYYADSVKGRFTISRDNSKNTVYLQMNSLKPEDTAVYYCAKDYYREVTTEYDYWGQGTQVTVSS high polyreactivity
QVQLVESGGGLVQAGCSLRLSCAASGFTFTTYAMGWYRQSPGKERELVAAISRSTGSTYYADSVKGRFTISRDNAKNTVYLKMNSMKPEDTAVYYCNTVFPNGYLSKYYYWGQGTKVTVSS high polyreactivity
QVQLVESGGGLVQAGGSLRLSCAASGSTFKYYAMGWYRQAPGKERELVAAISRRGGSTYYADSVKGRFTISRDNAKNTVYLQMNSLKPEDTAVYYCAARLPGYYGIGDYWGQGTQVTVSS high polyreactivity
QVQLVESGGGLVQAGGSLRLSCAASGRGYYAMGWYRQAPGKERELVAAISRGGNTKYADSVKGRFTISRDNAKNTVYLQMNSLKPEDTAVYYCYTDWADYYYYTDYDYWGQGTQVTVSS high polyreactivity
QVQLVESGGGLVQAGGSLRLSCAASGRIFRSNAMGWYRQSPGKESELVAAITWRGRTYYADSVKGRFTISRDNAKNTVYLQMNSLKPEDTAVYYCNAYVRYGYDYWGHGTQVTVSS high polyreactivity
QVQLVESGGGLVQAGGSLRLSCAASGSTFQPYAMGWYRQAPGKEREFVATISGSAGSTYYADSVKGRFKISRDNAKNTVYLQMNSLKPEDTGVYYCNARPARKSLDYDYWGQGTQVTVSS low polyreactivity
QVQLVESGGGLVQAGGSLRLSCAASGSTFATYAMGWYRQAPGKERELVAVITRGGRTYYADSVKGRFTISRDNAKNTVYLQMNSLKPEDTAVYYCAAKAYTYYARIGFDYWGQGTQVTVSS high polyreactivity

Fill in: polyreactivity (PSR sort gate) of `QVQHVESGGGLVQAGGSLRLSCAASGSTYGYYAMGWYRQAPGKERELVAAITSGGTTNYADSVKGRFTISRDNAKNTVYLQMNSLKPEDTAVYYCNAVGTFVRFWTDGRDGVTYDYWGQGTKVTVSS` is ___
low polyreactivity

Repeat with `QVQLVESGGGLVQAGGSLRLSCAASGRIFTSYAMGWYRQAPGKERELVAAISSGGSTYYADSVKGRFTISRDNAKNTVYLQMNSLKPEDTAVYYCNAQSTRRYYYYWGQGTQVTVSS`
high polyreactivity

###

assay: yeast display, Sf9 membrane polyspecificity reagent, FACS + sequencing; frameworks hold sequencing errors
REPORTED METRIC: polyreactivity (PSR sort gate)

The examples below pair each entry with its known result.
QVQLVESVGGLVEAGGSLRLSCASSGFISSHYAMGWYRQAPGKESELVAAITSGGSTYYADSVKGRFTISRDNAKNTVYLQMNSLKPEDTAVYYCAAYYRRWPRRYDYWGQGTQVTVSS high polyreactivity
QLQLVESGGGLVQAGGSLRLSCAASGSTFREYAMGWYRQAPGKERELVAAISSGDSTNYADSVKGRFTISRDNAKNTVYLQMNSLKPEDTSVYYCAADAQGAAAVQNDYWGQGTQVTVSS low polyreactivity
QVQLVESGGGLVQAGGSLRLSCAASGYIFPAYAMGWYRQAPGKERELVAAISWSTGSTYYADSVKGRFTISRDNAKNTVYLQMNSLKPEDTAVYYCAAGRPRRVPDHWYIYYYWGQGTQVTVSS low polyreactivity
QVQLEESAGGLVQAGGSLRLSCAASGRSFNAYAMGWYRQAPGKERELVATISWRTGSTYYADSVKGRFTISRDNAKNTVYLQMNSLKPEDTAVYYCNAKVGSYGAQGYRFAYNYWGQGTQVTVSS high polyreactivity
QVQLVESGGGLVQAGGSQRLSCAASGSIFLRYAMGWYRQAPGKERELVAAITSSGGSTYYADSVKGRFTISRDNAKNTVYLQMTSLKPEDTAVYYCNRYSYLFPYYWKYDYWGQGTQVTVSS high polyreactivity

Fill in: polyreactivity (PSR sort gate) of `QVQRVESGGGLVQAGGSLRLSCAASGITFGEYAMGWYSPAPGNERELVAGINWSGDGTYYADSVKGRFTISRDNEKNTVYLQMNSLKPEDTAVYYCAVDPGGGNYIYYYNEYYYWGQGTQVTLSS` is ___
low polyreactivity

Repeat with `QVQLVESGGGLVQAGGSLPLSCAASGRTFYYYAMGWYRQAPGKERELVAAISWSGGRTYYADSVKGSFTISRDNAKNTVYLQMNSLKPADTAVYYCNAEPPRGYTVSSGGEMDYWGQCTQVTVSS`
low polyreactivity

Repeat with `QVQLVESGGGLVQAGGSLRLSCAASGRTFVIYAMGWYRQAPGKEREFVPAISKGGGSTYYADSVKGRFTISRDNAKNTVYLQMNSLKPEDTAVYYCAAGYGTYYQSSRFDYWGQGTQVTVSS`
high polyreactivity

###

experiment: yeast display, Sf9 membrane polyspecificity reagent, FACS + sequencing; frameworks hold sequencing errors
REPORTED METRIC: polyreactivity (PSR sort gate)

QVQLVESGGGLVQAGGSLRLSCAASGSIFRRYDMGWYRQAPGKERELVAAISSSGGSTYYADSVKGRFTISRDNAKNTVYLHMKSLKPEDTAVYYCAADIYDYDRSEYTEYDYWGQGTQVTVSS low polyreactivity
QVQLVESGGGLVQAGGSLRLSCAASGRIFPPYAMGWYRQAPGKERELVAAISSSTTSTYYADSVKGRFTISRDNAKNTVYLQMNSLKPEDTADYYCAATGKGSYGYWGQGTQVTVSS low polyreactivity
QVQLVESGGGLVQAGGSLRLSCAASGYTFFYMGSYRQAPGKEREFVAVITYSGGSTYYADSVKGRFTISRDNAKNTVYLQLNSLKPEDTAVYYCAAAVWHYGRPGYLDSGYDYWGQGTQVTVSS low polyreactivity
